Sourced from patent US20200165344A1

Target: T1, recombinant cynomolgus NKG2D-Fc (cynomolgus; human, UniProt P61252 73-216)
T1 construct: extracellular domain; also called cynomolgus NKG2D-Fc fusion protein; not shown: human IgG1 Fc domain
T1 sequence (looked up): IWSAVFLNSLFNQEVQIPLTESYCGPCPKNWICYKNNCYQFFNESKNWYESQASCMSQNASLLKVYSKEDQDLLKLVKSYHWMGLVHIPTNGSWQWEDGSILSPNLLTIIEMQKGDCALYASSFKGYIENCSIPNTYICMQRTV
Assay: ELISA, NKG2D-Fc coated

binder	binding result
ADI-29401 (antibody, V domains shown) VH: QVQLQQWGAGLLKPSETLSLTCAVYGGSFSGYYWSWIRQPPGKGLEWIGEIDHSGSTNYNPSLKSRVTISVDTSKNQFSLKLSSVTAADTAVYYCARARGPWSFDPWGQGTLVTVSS VL: DIQMTQSPSTLSASVGDRVTITCRASQSIGSWLAWYQQKPGKAPKLLIYKASSLESGVPSRFSGSGSGTEFTLTISSLQPDDFATYYCQQYDIYPTFGGGTKVEIK	binds
ADI-29429 (antibody, V domains shown) VH: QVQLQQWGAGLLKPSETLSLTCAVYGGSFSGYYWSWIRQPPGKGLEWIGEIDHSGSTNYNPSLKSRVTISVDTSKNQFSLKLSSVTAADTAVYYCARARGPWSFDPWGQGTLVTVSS VL: DIQMTQSPSTLSASVGDRVTITCRASQSIGSWLAWYQQKPGKAPKLLIYKASSLESGVPSRFSGSGSGTEFTLTISSLQPDDFATYYCQQYELYSYTFGGGTKVEIK	binds
ADI-27740 (antibody, V domains shown, also called A40) VH: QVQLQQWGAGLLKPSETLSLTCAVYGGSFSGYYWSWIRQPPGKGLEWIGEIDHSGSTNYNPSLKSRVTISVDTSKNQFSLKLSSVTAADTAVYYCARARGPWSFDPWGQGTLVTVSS VL: DIQMTQSPSTLSASVGDRVTITCRASQSIGSWLAWYQQKPGKAPKLLIYKASSLESGVPSRFSGSGSGTEFTLTISSLQPDDFATYYCQQYHSFYTFGGGTKVEIK	binds
